Measured values drawn from PubChem BioAssay AID2060485 for this set.

system: A375 multi-cell spheroids with HUVEC/MSC, viability; experiment: Anticancer human tumor A375 cell line growth inhibition [GQUAD]; conditions: second compound 3.16 µM; first compound 0.1 µM; hits give low values;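 note: spheroids exposed to compounds for seven days before readout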
parameter: viability, T/C (%)
A number alone suffices; assume %.

// solved cases for viability, T/C follow
compound | target.or.test.system | measurement.units | reported
CC(=O)O[C@H]1C(=O)[C@@]2(C)[C@H]([C@H](OC(=O)c3ccccc3)[C@]3(O)C[C@H](OC(=O)[C@H](O)[C@@H](NC(=O)c4ccccc4)c4ccccc4)C(C)=C1C3(C)C)[C@]1(OC(C)=O)CO[C@@H]1C[C@@H]2O + CN(C)c1ccc(Nc2c3ccc(NC(=O)CCN4CCCC4)cc3nc3cc(NC(=O)CCN4CCCC4)ccc23)cc1 | A375 multi-cell spheroids with HUVEC/MSC, viability | % | 23.2
CC1COCCN1c1cc(-c2ccnn2C)c2ccnc(-c3ccn[nH]3)c2n1 (stereo not given) + CN(C)c1ccc(Nc2c3ccc(NC(=O)CCN4CCCC4)cc3nc3cc(NC(=O)CCN4CCCC4)ccc23)cc1 | A375 multi-cell spheroids with HUVEC/MSC, viability | % | 83.9
Cc1cccc(N(C)C(=O)C2C(O)CCN2c2nc(C)cc(C(F)(F)F)c2C#N)c1 (stereo not given) + Cc1[nH]c2ccc(F)cc2c1-c1nc2c3cccnc3c3ncccc3c2[nH]1 | A375 multi-cell spheroids with HUVEC/MSC, viability | % | 90.2
CC(C)(O)C1CCC(Nc2ccc3ncc(-c4cccc(C(F)(F)F)c4)n3n2)CC1 (stereo not given) + CN(C)c1ccc(Nc2c3ccc(NC(=O)CCN4CCCC4)cc3nc3cc(NC(=O)CCN4CCCC4)ccc23)cc1 | A375 multi-cell spheroids with HUVEC/MSC, viability | % | 99.2

Q: Print A375 multi-cell spheroids with HUVEC/MSC, viability viability, T/C for O=c1[nH]cc(F)c(=O)[nH]1 + Cc1[nH]c2ccc(F)cc2c1-c1nc2c3cccnc3c3ncccc3c2[nH]1 .
Ans: 90.9
